Entries annotated with measured Percent Effect
tgt: Arginase-2, mitochondrial (Homo sapiens) (UniProt P78540)
experimentSummary: in vitro enzyme assay to detect the production of urea directly proportional to the activity of Arginase II; also: in the data most compounds retested in dose-response had high values
Assay type: functional
Parameters: scale not given: direction of the effect not stated beside the values
testParameters: 33.3 µM
Entry format: amount then unit.

Previously resolved entries follow.
molecule	tgt	Percent Effect
COc1cccc(CN2CCCC(Nc3cccc(F)c3)C2)c1O (stereo not given)	Arginase-2, mitochondrial (Homo sapiens) (UniProt P78540)	2.23%
CN(Cc1cccc(Cl)c1)S(=O)(=O)N1CCOCC1	Arginase-2, mitochondrial (Homo sapiens) (UniProt P78540)	-5.92%
COCC(=O)N1CCCC1c1cc(Nc2nnc(C)s2)nc(C)n1 (stereo not given)	Arginase-2, mitochondrial (Homo sapiens) (UniProt P78540)	-3.96%
Cc1c(C(=O)NC(C)C(C)C)nnn1-c1cccc2c1CCN(C)C2 (stereo not given)	Arginase-2, mitochondrial (Homo sapiens) (UniProt P78540)	-17.8%

Please look at the following molecule next.
Please provide the recorded Percent Effect for CN(C)CCn1c(=O)oc2ccc(NC(=O)C3CCCO3)cc21 (stereo not given) , tested on Arginase-2, mitochondrial (Homo sapiens) (UniProt P78540).
1.56%

----------
Entries annotated with measured Percent Effect
tgt: Tyrosyl-tRNA synthetase, putative (Trypanosoma cruzi (strain CL Brener)) (UniProt Q4DSP6)
Sequence (Q4DSP6 as listed by the source): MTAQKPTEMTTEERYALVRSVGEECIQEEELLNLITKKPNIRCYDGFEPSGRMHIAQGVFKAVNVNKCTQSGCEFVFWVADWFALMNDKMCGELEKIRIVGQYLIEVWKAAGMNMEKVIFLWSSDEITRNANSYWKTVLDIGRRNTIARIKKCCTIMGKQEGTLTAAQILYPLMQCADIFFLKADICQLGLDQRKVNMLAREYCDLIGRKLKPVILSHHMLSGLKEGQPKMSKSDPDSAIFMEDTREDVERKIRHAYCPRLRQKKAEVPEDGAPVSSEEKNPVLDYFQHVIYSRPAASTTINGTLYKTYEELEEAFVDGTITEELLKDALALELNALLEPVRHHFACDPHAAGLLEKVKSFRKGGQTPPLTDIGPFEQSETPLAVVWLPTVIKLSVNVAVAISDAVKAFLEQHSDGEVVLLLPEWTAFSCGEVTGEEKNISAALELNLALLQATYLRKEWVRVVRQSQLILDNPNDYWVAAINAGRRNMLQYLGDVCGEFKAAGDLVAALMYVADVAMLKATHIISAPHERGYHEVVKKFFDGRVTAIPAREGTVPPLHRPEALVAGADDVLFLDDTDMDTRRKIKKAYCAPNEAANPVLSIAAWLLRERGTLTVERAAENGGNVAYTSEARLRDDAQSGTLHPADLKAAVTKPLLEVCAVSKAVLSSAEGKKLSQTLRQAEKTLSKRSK
experimentSummary: Trypanosoma cruzi tyrosyl tRNA synthetase (TcYRS) SOP
Type: functional
Design: scale not given: direction of the effect not stated beside the values
testParameters: 30 µM
Use % as the unit, but write only the number.

molecule	tgt	Percent Effect, %
O=C(c1ccnnc1)N1C[C@H](Oc2cccnc2)[C@H]2OCCC[C@H]21	Tyrosyl-tRNA synthetase, putative (Trypanosoma cruzi (strain CL Brener)) (UniProt Q4DSP6)	15.8

Which Percent Effect is reported for this molecule? Cc1cn2c(n1)CCC(NC(=O)CCn1ccnn1)C2 (stereo not drawn)
6.17

Which Percent Effect is reported for this molecule? CSc1ccsc1C(=O)N1CCN(CC(C)(C)O)CC1
-25.3

----------
tgt: Arginase-2, mitochondrial (Homo sapiens) (UniProt P78540)
Sequence (whole entry): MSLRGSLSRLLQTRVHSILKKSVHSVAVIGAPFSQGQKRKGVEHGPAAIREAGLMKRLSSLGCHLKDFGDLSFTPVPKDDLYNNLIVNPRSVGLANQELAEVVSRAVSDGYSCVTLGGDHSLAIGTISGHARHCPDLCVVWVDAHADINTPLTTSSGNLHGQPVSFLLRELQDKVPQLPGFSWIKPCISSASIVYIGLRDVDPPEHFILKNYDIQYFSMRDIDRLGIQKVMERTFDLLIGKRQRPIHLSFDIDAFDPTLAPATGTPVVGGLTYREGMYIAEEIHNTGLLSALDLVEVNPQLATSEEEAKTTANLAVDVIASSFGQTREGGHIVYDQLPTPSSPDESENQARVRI
experimentSummary: in vitro enzyme assay to detect the production of urea directly proportional to the activity of Arginase II; also: in the data most compounds retested in dose-response had high values
Type: functional
Set-up: scale not given: direction of the effect not stated beside the values
testParameters: 33.3 µM
measure: Percent Effect (%)
Use % as the unit, but write only the number.

Previously resolved entries follow.
molecule	measure	recordedMeasurement
COc1cc2nc3n(c(=O)c2cc1OC)CCN(C)CC3	Percent Effect	-3.48
COCC1c2c(cnn2C)CCN1Cc1ccc(F)cc1 (centres undefined)	Percent Effect	1.25
Cc1noc([C@@H]2CC[C@@H]3[C@@H](CCN3S(=O)(=O)c3cccnc3)O2)n1	Percent Effect	1.67
COc1cccc(CNC(=O)C(c2cccc(F)c2)N2CCOCC2)c1 (centres undefined)	Percent Effect	-5.92
NCCn1nc(C2CCN(Cc3ccc(Cl)c(Cl)c3)C2)c2nccnc21 (centres undefined)	Percent Effect	-4.41

Which Percent Effect is reported for this molecule? CCS(=O)(=O)N1CCOC2(CCCN(c3ccc(C)nn3)C2)C1 (centres undefined)
-48.9

Which Percent Effect is reported for this molecule? NS(=O)(=O)N1CCc2ccc(NC(=O)Cc3ccc(F)cc3)cc21
-39.1

Which Percent Effect is reported for this molecule? CC1(C)CC(N(Cc2ccccc2)Cc2cccnc2)CC(C)(C)N1
-6.73

Which Percent Effect is reported for this molecule? Cc1nn(C)c(N(C)C)c1CNCc1cccnc1-n1cncn1
3.23

----------
tgt: Ubiquitin-activating enzyme e1, putative (Leishmania donovani (strain BPK282A1)) (UniProt E9BSI1)
Sequence (whole entry): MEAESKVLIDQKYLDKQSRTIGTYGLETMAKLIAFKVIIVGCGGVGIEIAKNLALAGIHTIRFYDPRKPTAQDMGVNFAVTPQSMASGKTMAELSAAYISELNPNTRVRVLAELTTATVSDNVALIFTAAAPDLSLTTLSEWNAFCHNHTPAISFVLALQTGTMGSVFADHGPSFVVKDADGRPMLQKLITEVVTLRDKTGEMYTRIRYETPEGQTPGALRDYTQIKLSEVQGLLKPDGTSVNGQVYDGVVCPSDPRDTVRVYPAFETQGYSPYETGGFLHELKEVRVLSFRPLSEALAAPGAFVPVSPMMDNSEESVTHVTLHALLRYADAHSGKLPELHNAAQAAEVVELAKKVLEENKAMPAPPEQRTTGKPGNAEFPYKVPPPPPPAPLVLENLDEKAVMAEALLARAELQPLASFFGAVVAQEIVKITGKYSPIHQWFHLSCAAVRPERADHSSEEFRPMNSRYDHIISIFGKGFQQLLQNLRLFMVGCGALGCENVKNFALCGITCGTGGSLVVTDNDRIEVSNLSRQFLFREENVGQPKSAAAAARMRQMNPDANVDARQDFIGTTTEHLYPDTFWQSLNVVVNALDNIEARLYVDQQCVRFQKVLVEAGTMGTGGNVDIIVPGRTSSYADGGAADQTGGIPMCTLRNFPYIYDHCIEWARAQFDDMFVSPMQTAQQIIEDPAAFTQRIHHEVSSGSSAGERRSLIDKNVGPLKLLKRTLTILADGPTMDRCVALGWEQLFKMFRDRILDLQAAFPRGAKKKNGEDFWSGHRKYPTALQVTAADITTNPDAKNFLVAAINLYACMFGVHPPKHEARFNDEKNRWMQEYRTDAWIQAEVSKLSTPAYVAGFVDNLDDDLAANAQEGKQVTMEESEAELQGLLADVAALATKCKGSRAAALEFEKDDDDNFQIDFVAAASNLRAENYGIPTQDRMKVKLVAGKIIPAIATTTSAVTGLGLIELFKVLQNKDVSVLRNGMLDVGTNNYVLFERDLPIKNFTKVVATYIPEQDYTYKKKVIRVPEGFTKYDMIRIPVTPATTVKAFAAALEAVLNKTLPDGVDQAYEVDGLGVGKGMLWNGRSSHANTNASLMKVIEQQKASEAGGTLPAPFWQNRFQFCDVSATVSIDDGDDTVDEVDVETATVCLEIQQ
experimentSummary: Leishmania donovani Ubiquitin Activating Enzyme (LdE1)
Type: functional
Parameters: scale not given: direction of the effect not stated beside the values
testParameters: 30 µM
Potency and affinity values are given separately.
Record YES whenever Percent Effect is at 10% or higher; record NO when lower.

Please review the entries below; each comes with its answer.
compound	group
Cc1cnn(C2CN(Cc3nc(C(C)(C)C)no3)C2)c1	YES
COc1cc(CNC2CCc3nc(C)nn3C2)cc2c1OCCO2 (stereo not drawn)	NO
CN(C(=O)Cc1ccc2c(c1)OCCO2)C1CCCC1	YES
CC(C)OCc1ncn2c1CN(Cc1ccc(F)cc1)CCC2	NO
CCOCC(O)CN1CCN(C(=O)CC(C)C)CC1 (stereo not drawn)	YES

Has CS(=O)(=O)N1Cc2nccn2CC(Cn2ncccc2=O)C1 (stereo not drawn) a recorded Percent Effect greater than or equal to 10%?
YES

Has Cc1ccccc1CC1(CO)CCCN(c2ncccc2C#N)C1 (stereo not drawn) a recorded Percent Effect greater than or equal to 10%?
NO

----------
Species: Homo sapiens
experimentSummary: To identify inhibition of the IFN signalling (Jak-Stat) pathway via expression of an eGFP reporter gene under the control of an IFN-stimulated response element (ISRE) containing MxA promoter.
Assay type: functional
Set-up: scale not given: direction of the effect not stated beside the values
testParameters: 30 µM
Entries annotated with measured Percent Effect
Use % as the unit, but write only the number.

Previously resolved entries follow.
compound	unitsOfMeasure	Percent Effect
COc1cccc(-n2c(C)cc(C(=O)O)c2C)c1	%	31.6
CN(CCCc1ccccc1)Cc1nc2c(cnn2C)c(=O)[nH]1	%	18.9
CC(=O)N1CCn2cc(CNC(=O)c3cccn3C)nc2C1	%	5.97

Which Percent Effect is reported for this compound? O=C(Nc1ccc(F)cc1F)Nc1c[nH]c(=O)[nH]c1=O
8.21

----------
tgt: Proteasome subunit beta (Trypanosoma cruzi)
experimentSummary: Trypanosoma cruzi proteasome chymotrypsin-like activity (TcProtChymo) assay. Also: in the data most compounds retested in dose-response had high values.
Assay type: functional
Set-up: scale not given: direction of the effect not stated beside the values
testParameters: 9.37 µM
Entries annotated with measured Percent Effect
Use % as the unit, but write only the number.

Previously resolved entries follow.
compound	tgt	measure	recordedMeasurement
Cc1nc(CN(C)C2CCN(CC(=O)NC3CCOCC3)C2)no1 (stereo not drawn)	Proteasome subunit beta (Trypanosoma cruzi)	Percent Effect	11.1
CC(C)CN(C)c1ccc(C(=O)N2CCCC2c2cnn(C)c2)cn1 (stereo not drawn)	Proteasome subunit beta (Trypanosoma cruzi)	Percent Effect	8.71
O=C(Nc1cnn(CCN2CCOCC2)c1)c1ccccn1	Proteasome subunit beta (Trypanosoma cruzi)	Percent Effect	5.85

Which Percent Effect is reported for this compound? O=C(NCCc1ccccc1)C1CCC(Cn2cnnn2)CC1 (stereo not drawn)
3.88

Which Percent Effect is reported for this compound? CCC1(CO)CCCN(c2ncccc2C#N)C1 (stereo not drawn)
-0.69

Which Percent Effect is reported for this compound? CN(C)CCO[C@H]1CN(Cc2cccc(C#N)c2)[C@@H]2COC[C@H]12
9.91

Which Percent Effect is reported for this compound? COCCN1CCOCC2(CCCN(Cc3ccc(C)o3)C2)C1 (stereo not drawn)
8.55

Which Percent Effect is reported for this compound? CC(C)NS(=O)(=O)c1cc(C(=O)O)cc(-c2ccc(CN(C)C)cc2)c1
13.7
